Test system: CP192
Assay: qHTS profiling for inhibitors of Plasmodium falciparum proliferation (AID 504749); note: nearly all actives have a fitted effect of over 60% in size
Conditions: P. falciparum in erythrocytes, SYBR Green DNA, 72 h; series mostly up to 28.7 µM
Records with an inconclusive call do not appear. The source made the active and inactive calls. Calls come from the whole dose curve; as a rule, active = well fitted inhibition curve with a large enough effect; inconclusive = small, poorly fitted or top-dose-only effect; inactive = flat fitted curve, though single readings scatter.
# output must be one of 1 (yes) (active), 0 (no) (inactive)

I'd appreciate the recorded outcome for CC1=C(/C=C/C(C)=C/C=C/C(C)=C/CO)C(C)(C)CCC1 from this test.
0 (no)

Lab log entry: CCCCCCCC/C=C\CCCCCCCC(=O)O — outcome as called in the assay?
0 (no)

For this compound, state the assay outcome: COc1ccc2c3c1O[C@H]1C[C@@H](O)C=C[C@@]31CCN(C)C2
0 (no)

Name the outcome recorded for O=CCCCC=O in the assay.
0 (no)

Fill in: this test's call for C#CCOc1ccc2c(C)cc(=O)oc2c1 is ___
0 (no)

# fetch the recorded call for C=C1C(=CC=C2CCC[C@@]3(C)[C@@H]2CC[C@H]3[C@H](C)CCCC(C)C)C[C@@H](O)C[C@@H]1O here
0 (no)

Assay outcome for CCCCCCCCCCCCCC[n+]1ccc(C)cc1 : what was it?
1 (yes)

For COC(C(=O)C(O)C(C)O)C1Cc2cc3cc(OC4CC(OC5CC(O)C(O)C(C)O5)C(O)C(C)O4)c(C)c(O)c3c(O)c2C(=O)C1OC1CC(OC2CC(OC3CC(C)(O)C(O)C(C)O3)C(O)C(C)O2)C(O)C(C)O1 (stereo not given) , which call appears in the assay record?
1 (yes)

Entry Nc1c(Br)cc(Br)cc1CNC1CCC(O)CC1 (stereo not given) : call = ?
0 (no)

Record lookup: outcome of this test for Cc1c(C)c2c(c(C)c1O)CC[C@@](C)(CCC[C@H](C)CCC[C@H](C)CCCC(C)C)O2 ?
0 (no)
